Sourced from PubChem BioAssay (NCATS)

# PROCEDURE_DETAILS: qHTS of pediatric cancer cell lines to identify multiple opportunities for drug repurposing: Confirmatory screen for NB1643 cells (AID 1347109); note: nearly all actives have a fitted effect of over 45% in size
# PROTOCOL_CONDITIONS: NB1643 neuroblastoma cell viability; series mostly up to 45.9 µM
Results filed as inconclusive are left out. Calls of active or inactive are those of the source. Calls come from the whole dose curve; as a rule, active = well fitted cell-killing curve with a large enough effect; inconclusive = small, poorly fitted or top-dose-only effect, or effect the other way; inactive = no such curve, though single readings can be large or run the other way. Numbered stars: 1 amine (or outer) side, 2 acyl side, 3 side chain; on linkers, the order of the positions; unused ones are H or OH. Bridge positions count the residues as written; N and C are the ends. Square brackets hold non-standard residues; d marks the D form. Peptide text beside a SMILES is read from it. I, II: the chains in the order shown. Actinocin(9to1) = Cc1c2oc3c(C)ccc(C(=O)[*:1])c3nc-2c(C(=O)[*:2])c(N)c1=O; NMeV = CN[C@H](C(=O)O)C(C)C; Sar = CNCC(=O)O
Labels: active, inactive

1) O=C(CCCN1CCC(O)(c2ccc(Br)cc2)CC1)c1ccc(F)cc1    inactive
2) CC(=O)OCC(=O)[C@@]12OC(C)(C)O[C@@H]1C[C@H]1[C@@H]3C[C@H](F)C4=CC(=O)C=C[C@]4(C)[C@@]3(F)[C@@H](O)C[C@@]12C    inactive
3) C[C@H]1C[C@H]2[C@@H]3CCC4=CC(=O)C=C[C@]4(C)[C@@]3(Cl)[C@@H](O)C[C@]2(C)[C@@]1(O)C(=O)CO    inactive
4) CC(=O)OCC(=O)[C@@]1(O)CC[C@H]2[C@@H]3CCC4=CC(=O)C=C[C@]4(C)[C@H]3[C@@H](O)C[C@@]21C    inactive
5) NC(CO)(CO)CO    inactive
6) CCCCCCC[N+](CC)(CC)CCCCc1ccc(Cl)cc1    active
7) C[C@]12C=CC(=O)C=C1[C@@H](F)C[C@@H]1[C@@H]2[C@@H](O)C[C@@]2(C)[C@H]1CC[C@]2(O)C(=O)CO    inactive
8) C[C@]12CCC(=O)C=C1CC[C@H]1[C@@H]3CC[C@](O)(C(=O)CO)[C@@]3(C)C[C@H](O)[C@@]12F    inactive
9) CCCCC(=O)O[C@]1(C(=O)CO)CC[C@H]2[C@@H]3CCC4=CC(=O)CC[C@]4(C)[C@H]3[C@@H](O)C[C@@]21C    inactive
10) CC(C)(C(=O)c1cccnc1)c1cccnc1    inactive
11) Cc1c2oc3c(C)ccc(C(=O)N[C@@H]4C(=O)N[C@H](C(C)C)C(=O)N5CCC[C@H]5C(=O)N(C)CC(=O)N(C)[C@@H](C(C)C)C(=O)O[C@@H]4C)c3nc-2c(C(=O)N[C@@H]2C(=O)N[C@H](C(C)C)C(=O)N3CCC[C@H]3C(=O)N(C)CC(=O)N(C)[C@@H](C(C)C)C(=O)O[C@@H]2C)c(N)c1=O (I: T[dV]P[Sar][NMeV] / II: T[dV]P[Sar][NMeV]; ester I:1-I:C, II:1-II:C; linker I:N-II:N via Actinocin(9to1))    inactive
12) C=C1C[C@H]2[C@@H]3C=C(C)C4=CC(=O)CC[C@]4(C)[C@H]3CC[C@]2(C)[C@@]1(OC(C)=O)C(C)=O    inactive
13) CC(=O)OCC(=O)[C@@]1(OC(C)=O)[C@@H](C)C[C@H]2[C@@H]3C[C@H](F)C4=CC(=O)C=C[C@]4(C)[C@@]3(F)[C@@H](O)C[C@@]21C    inactive

###

# Tested on: CP194
# PROCEDURE_DETAILS: qHTS profiling for inhibitors of Plasmodium falciparum proliferation (AID 504749); note: nearly all actives have a fitted effect of over 60% in size
# PROTOCOL_CONDITIONS: P. falciparum in erythrocytes, SYBR Green DNA, 72 h; series mostly up to 28.7 µM
# Procedure: NIH National Institute of Allergy and Infectious Diseases [NIAID] NIH Chemical Genomics Center [NCGC] […] Because mature erythrocytes lack DNA, only Plasmodium-derived DNA is detected. NCGC Assay Protocol Summary: The SYBR Green viability assay was adapted from a method described previously (Plouffe et al., 2008). […] The following morning, fluorescence intensity at 485(14) nm excitation and 535(25) nm emission wavelengths was measured on an EnVision (Perkin Elmer) plate reader. […]
Inconclusive results are not listed. Activity calls are given as the source filed them. The call rests on the fitted dose curve; in most records, active means well fitted inhibition curve with a large enough effect; inconclusive means small, poorly fitted or top-dose-only effect; inactive means flat fitted curve, though single readings scatter.
Outcomes: Yes (active), No (inactive)

1. NC(CO)(CO)CO    No
2. Cc1ncc(CSSCc2cnc(C)c(O)c2CO)c(CO)c1O    No
3. CC(=O)Oc1ccc(C(c2ccc(OC(C)=O)cc2)c2ccccn2)cc1    No
4. C[C@H]1C[C@H]2[C@@H]3CCC4=CC(=O)C=C[C@]4(C)[C@@]3(Cl)[C@@H](O)C[C@]2(C)[C@@]1(O)C(=O)CO    No
5. COc1cc2c(cc1OC)C(C(C(=O)N(CCc1ccc(OC)c(OC)c1OC)CCc1ccc(OC)c(OC)c1OC)c1ccccc1)=NCC2 (centres undefined)    Yes
6. C[C@H](O)C(=O)Nc1c(I)c(C(=O)NC(CO)CO)c(I)c(C(=O)NC(CO)CO)c1I    No
7. CCN1CCC[C@H]1CNC(=O)c1c(OC)ccc(Br)c1OC    No
8. CC(=O)OCC(=O)NCCCOc1cccc(CN2CCCCC2)c1    No
9. C[C@H]1[C@H](NC(=O)/C(=N/OC(C)(C)C(=O)O)c2csc(N)n2)C(=O)N1S(=O)(=O)O (stereo in doubt)    No

###

# PROCEDURE_DETAILS: qHTS of pediatric cancer cell lines to identify multiple opportunities for drug repurposing: Primary screen for Rh30 cells (AID 1347107); note: nearly all actives have a fitted effect of over 75% in size
# PROTOCOL_CONDITIONS: Rh30 rhabdomyosarcoma viability, CellTiter-Glo luminescence, 48 h; series mostly up to 46 µM
Records with an inconclusive call do not appear. Calls of active or inactive are those of the source. The call rests on the fitted dose curve; in most records, active means well fitted cell-killing curve with a large enough effect; inconclusive means small, poorly fitted or top-dose-only effect; inactive means no such curve, though single readings can be large or run the other way.
Labels: YES = active, NO = inactive

1) CCCCN1CCCC1C(=O)Nc1c(C)cc(C)cc1C (configuration not stated)    NO
2) CN(C(=O)CN(CCO)CC(=O)N(C)C(C)(C)Cc1ccccc1)C(C)(C)Cc1ccccc1    NO
3) CO/N=C1\CN(c2nc3c(cc2F)c(=O)c(C(=O)O)cn3C2CC2)CC1CN (configuration not stated)    NO
4) CC(=O)Oc1ccc(C(=C2CCCCC2)c2ccc(OC(C)=O)cc2)cc1    NO
5) C[C@]12CC[C@H]3[C@@H](CCC4=CC(=O)CC[C@@]43C)[C@@H]1CC[C@@H]2C(=O)CO    NO
6) O=C(OCC(O)CO)c1ccccc1Nc1ccnc2cc(Cl)ccc12 (configuration not stated)    NO
7) c1ccc(OCc2ccc(CCCN3CCOCC3)cc2)cc1    NO
8) CCOC(=O)/C=C(C)/C=C/C=C(C)/C=C/c1c(C)cc(OC)c(C)c1C    NO
9) CNCC[C@@H](Oc1ccccc1C)c1ccccc1    NO
10) CC(=O)OCC(=O)[C@@]12N=C(C)O[C@@H]1C[C@H]1[C@@H]3CCC4=CC(=O)C=C[C@]4(C)[C@H]3[C@@H](O)C[C@@]12C    NO
11) CN1CCC[C@@H]1c1cccnc1    NO
12) CC(=O)c1ccc2c(c1)N(CCCN1CCC(CCO)CC1)c1ccccc1S2    NO
13) CN1CCC(=C2c3ccccc3Sc3ccccc32)CC1    NO
14) CC1(C)O[C@@H]2[C@@H](CO[C@@]3(COS(N)(=O)=O)OC(C)(C)O[C@@H]23)O1    NO
15) Clc1ccc2c(c1)CCc1cccnc1C2=C1CCNCC1    NO
16) CN1C(CCl)Nc2cc(Cl)c(S(N)(=O)=O)cc2S1(=O)=O (configuration not stated)    NO
17) CCCCC(CC)CN=C(N)NC(N)=NCCCCCCN=C(N)NC(N)=NCC(CC)CCCC (configuration not stated)    YES
18) NC(=NCCCCCCN=C(N)/N=C(\N)Nc1ccc(Cl)cc1)/N=C(\N)Nc1ccc(Cl)cc1    NO
19) CCOc1ccc2nc3cc(N)ccc3c(N)c2c1    NO
20) C[C@@H]1C[C@H]2[C@@H]3C[C@H](F)C4=CC(=O)C(Cl)=C[C@]4(C)[C@@]3(F)[C@@H](O)C[C@]2(C)[C@@]1(O)C(=O)CO    NO
21) C/C=C/c1ccc(OC)cc1    NO
22) O=C(CCCN1CCC(O)(c2ccc(Br)cc2)CC1)c1ccc(F)cc1    NO
23) COc1ccc(OC)c(C(O)CNC(=O)CN)c1 (configuration not stated)    NO
24) CC(=O)OCC(=O)[C@@]12OC(C)(C)O[C@@H]1C[C@H]1[C@@H]3C[C@H](F)C4=CC(=O)C=C[C@]4(C)[C@@]3(F)[C@@H](O)C[C@@]12C    NO
25) CN(C)/N=N/c1nc[nH]c1C(N)=O    NO
26) O=C(Nc1ccc(Oc2ccc(Cl)cc2)c(Cl)c1)c1cc(I)cc(I)c1O    NO
27) OC[C@@H](O)[C@@H](O[C@@H]1O[C@H](CO)[C@H](O)[C@H](O)[C@H]1O)[C@H](O)[C@@H](O)CO    NO
28) CCOc1ccc(Cc2nccc3cc(OCC)c(OCC)cc23)cc1OCC    NO
29) CCCCCCCCCCCCCCCCCC(=O)OCC(O)CO (configuration not stated)    NO
30) N[C@@H](CCC(=O)N[C@@H](CS)C(=O)NCC(=O)O)C(=O)O    NO
31) O=S1(=O)c2cccc3cccc(c23)N1CCCN1CCN(c2ccc(F)cc2)CC1    NO
32) N[C@H](Cc1c[nH]c2ccccc12)C(=O)O    NO
33) Cc1cc(N)c2cc(NC(=O)Nc3ccc4nc(C)cc(N)c4c3)ccc2n1    NO
34) COc1cc2c(cc1OC)C(=O)C(CC1CCN(Cc3ccccc3)CC1)C2 (configuration not stated)    NO
35) CN=C(NC#N)NCCSCc1csc(N=C(N)N)n1    NO
36) COCc1c(C(C)C)nc(C(C)C)c(/C=C/[C@@H](O)C[C@@H](O)CC(=O)O)c1-c1ccc(F)cc1    NO
37) CCN(CC)CCNC(=O)COc1ccc(Cl)cc1    NO
38) Cc1c(C(C)C)c(=O)n(-c2ccccc2)n1C    NO
39) CC1=C(C(=O)O)N2C(=O)[C@@H](NC(=O)[C@H](N)c3ccc(O)cc3)[C@H]2SC1    NO
40) COC(=O)CCc1ccc(OCC(O)CNC(C)C)cc1 (configuration not stated)    NO
41) CC(=O)N/N=C/c1ccc([N+](=O)[O-])o1    NO
42) Cc1c(F)c(N2CCNC(C)C2)cc2c1c(=O)c(C(=O)O)cn2C1CC1 (configuration not stated)    NO
